Entry source: paper PMC10397247

Target: T1, 4H575-bH
T1 chain: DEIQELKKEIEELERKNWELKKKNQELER
Test: two-hybrid library CCNG1;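 further: natural log of median RNA to DNA barcode read ratio; higher means stronger binding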
Each record here notes measured interaction score.

# Binder, interaction score
records = [
    ("DKIQELKKEIEELKRKNWELEKEIQELER [4H2673-bH]", -0.762),
    ("DKNQELEKKIEELKRKIWELEKENQELER [4H3427-bH]", 1.53),
    ("DKIQELKKENEELEREIWELKKKIQELKR [4H2702-bH]", -2.01),
    ("DENQELEKENEELEREIWELEKKIQELKR [4H1158-bH]", 0.888),
    ("DKNQELKKKNEELKRKIWELKKEIQELER [4H4073-bH]", -1.03),
    ("DKIQELKKEIEELERENWELKKEIQELKR [4H2586-bH]", 0.499),
    ("DEIQELEKKNEELKREIWELKKEIQELER [4H457-bH]", -1.98),
    ("DENQELKKKIEELERKIWELEKKNQELER [4H1831-bH]", -1.81),
    ("DEIQELEKKIEELKRENWELKKEIQELKR [4H346-bH]", -0.18),
    ("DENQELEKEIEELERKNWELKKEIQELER [4H1081-bH]", -2.22),
    ("DKIQELKKEIEELKREIWELEKENQELER [4H2627-bH]", -0.0013),
    ("DEIQELKKEIEELERKNWELKKKNQELER [4H575-bH]", -0.14),
    ("DEIQELEKEIEELKRKNWELEKKIQELKR [4H118-bH]", -0.101),
    ("DEIQELEKEIEELKRKIWELKKKNQELKR [4H112-bH]", -0.63),
    ("DKNQELKKKIEELKRENWELEKKIQELKR [4H3926-bH]", -0.061),
    ("DKIQELKKKNEELKREIWELEKEIQELKR [4H3010-bH]", -2.51),
    ("DEIAQLEQENAELKQKIAELKWENAQLEQ [4H235-bA]", -3.02),
    ("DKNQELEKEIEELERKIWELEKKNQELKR [4H3112-bH]", -0.872),
    ("DEIQELEKENEELERKIWELKKEIQELKR [4H170-bH]", -1.59),
]
